# System: SW-620 colon
# testDetails: NCI-60 one-dose screen, 48 h
# testParameters: 10 µM unless noted
The panel holds about 83,000 compounds, 20% with a hit somewhere; the sample as a whole holds those more often. The source made the active and inactive calls. How the source made its calls: active means growth percent below 10; inactive means the rest.
Result category, one only: active, inactive

Record excerpt, results attached:
>  <inputSmiles>
COc1cc(C(=O)NN=C2c3ccccc3-c3ccccc32)cc(OC)c1OC

>  <cat>
inactive

$$$$
>  <inputSmiles>
Cc1ccc(Nc2nc(N)c3ccccc3n2)cc1Cl

>  <cat>
inactive

$$$$
>  <inputSmiles>
COc1cc2nc(NC3CCC3)nc(NC3CCN(C(C)C)CC3)c2cc1OC

>  <cat>
inactive

$$$$
>  <inputSmiles>
O=C(/C=C/c1ccccc1)c1ccc(Nc2nc(NCCO)nc(Nc3ccc(Cl)cc3)n2)cc1

>  <cat>
inactive

$$$$
>  <inputSmiles>
O=c1oc2ccc(Cl)cc2c(=O)n1-c1ccc(I)cc1F

>  <cat>
active

$$$$
>  <inputSmiles>
CCOc1cccc(/C=N/NC(=O)C(=O)Nc2cccc(C(F)(F)F)c2)c1O

>  <cat>
inactive

$$$$

Incoming: Look up the recorded call for CC[C@]1(O)C[C@@H]2CN(CCc3c([nH]c4ccccc34)[C@@](C(=O)OC)(c3cc4c(cc3OC)N(C)[C@H]3[C@@](O)(C(=O)OC)[C@H](OC(=O)CCCBr)[C@]5(CC)C=CCN6CC[C@]43[C@@H]65)C2)C1 in this test.
Outgoing: inactive

Incoming: Look up the recorded call for COc1ccc(C(=O)Nc2ccc3nc(N4CCCCC4)cc(C)c3c2)cc1OC in this test.
Outgoing: inactive

Incoming: Look up the recorded call for O=c1oc2ccc(Br)cc2c(=O)n1-c1ccc(Cl)cc1F in this test.
Outgoing: active

* * *

# Tested on: ACHN renal
# testDetails: NCI-60 one-dose screen, 48 h (100 = growth as untreated, 0 = no growth, -100 = all killed)
# testParameters: 10 µM unless noted
Compounds without any hit were thinned out: in the full panel of roughly 83,000, 20% have a hit.
Records here are stratified by growth; strata: bucket 1 = under 20%, bucket 2 = from 20% up to 80%, bucket 3 = 80% and over

Record excerpt, results attached:
>  <compound>
COc1ccc(CCN2CCC(CN(C)Cc3cnn(-c4ccccc4)c3)CC2)cc1

>  <cat>
bucket 2

$$$$
>  <compound>
O=C1NC(=O)C(=Cc2cn(Cc3cn(Cc4ccc(Cl)cc4Cl)nn3)c3ccccc23)C(=O)N1

>  <cat>
bucket 3

$$$$
>  <compound>
Cc1c(C(=O)OCCO)cc(-c2ccc(Cl)cc2)n1-c1ccc(Cl)cc1Cl

>  <cat>
bucket 2

$$$$

Incoming: Where would Nc1ncnc(N)c1NC(=O)c1ccc(OCc2ccccc2)cc1 land among the classes by reported growth?
Outgoing: bucket 3

Incoming: Where would O=C(Nc1ccc(I)cc1F)c1cc(Cl)ccc1O land among the classes by reported growth?
Outgoing: bucket 1

Incoming: Where would COc1ccc(-n2c(C(O)c3ccccc3)nn(CN3CCOCC3)c2=S)cc1 (stereo not given) land among the classes by reported growth?
Outgoing: bucket 3

Incoming: Where would COc1ccc(C)c2sc(N(Cc3cccnc3)C(=O)c3ccc(C#N)cc3)nc12 land among the classes by reported growth?
Outgoing: bucket 1

Incoming: Where would Cc1cccc2c(=O)c3c(sc12)c(NCCN)nc1ccccc13 land among the classes by reported growth?
Outgoing: bucket 1

Incoming: Where would O=C1Nc2ccccc2/C1=C/c1ccc[nH]1 land among the classes by reported growth?
Outgoing: bucket 3

Incoming: Where would CCCCCCc1cc2cc(-c3csc(/C=C/c4ccccc4)n3)c(=O)oc2cc1O land among the classes by reported growth?
Outgoing: bucket 2

Incoming: Where would O=c1c2cccc(F)c2sc2c(N3CCNCC3)nc3ccccc3c12 land among the classes by reported growth?
Outgoing: bucket 1

* * *

# Tested on: OVCAR-5 ovarian
# testDetails: NCI-60 one-dose screen, 48 h
# testParameters: 10 µM unless noted
About 83,000 compounds went through this panel and 20% of them were active in at least one assay; those are over-represented in the sample as a whole. The source made the active and inactive calls. Rule for the calls: active = growth percent below 10; inactive = the rest.
Result category, one only: 1 (yes) for active, 0 (no) for inactive

>  <compound>
O=C(Cn1cc(COc2ncnc3c2cnn3-c2ccccc2)nn1)Nc1cccc2ccccc12

>  <cat>
0 (no)

$$$$
>  <compound>
CCOC(=O)c1c(C=O)nc2ccccc2c1/C=C/c1ccc(Cl)cc1

>  <cat>
0 (no)

$$$$
>  <compound>
CNCCNc1nc2ccccc2c2c(=O)c3cc(F)ccc3sc12

>  <cat>
0 (no)

$$$$
>  <compound>
CC1=C(C(=O)OCC2CCN(C(=O)OC(C)(C)C)CC2)[C@@H](c2cccc(C#N)c2)C2=C(CC(C)(C)CC2=O)N1

>  <cat>
0 (no)

$$$$
>  <compound>
Cc1ccc(CN2CCC(C(=O)Nc3ccc(-c4cc5ccccc5[nH]4)cc3)CC2)o1

>  <cat>
0 (no)

$$$$
>  <compound>
O=S1(=O)N(Cc2ccccc2)[C@@H](Cc2ccccc2)C2O[C@H]2[C@H](Cc2ccccc2)N1Cc1ccccc1 (stereo not given in full)

>  <cat>
0 (no)

$$$$

Continue with the next compound.
Incoming: Look up the recorded call for NC(CCc1nc2ccccc2c(=O)[nH]1)C(=O)O (stereo not given) in this test.
Outgoing: 0 (no)

* * *

Examples of compounds with documented growth follow.
# Test system: TK-10 renal
# testDetails: NCI-60 one-dose screen, 48 h (100 = growth as untreated, 0 = no growth, -100 = all killed)
# testParameters: 10 µM unless noted
About 83,000 compounds went through this panel and 20% of them were active in at least one assay; those are over-represented in the sample as a whole.
Value expressed in %; do not type the unit.

Example entries begin here.
>  <compound>
CCN1C(=O)N(CC)C2Nn3c(s/c(=C\c4ccccc4F)c3=O)=NC21 (stereo not given)

>  <growth (%)>
87.2

$$$$
>  <compound>
CCCc1c(C)c2sc(=O)[nH]c2[nH]c1=O

>  <growth (%)>
110

$$$$
>  <compound>
COc1cc(C2C(C#N)=C(N)OC3=C2C(=O)c2ccccc2C3=O)cc(OC)c1O (stereo not given)

>  <growth (%)>
70.1

$$$$
>  <compound>
O=C(Cn1cc(COc2ncnc3c2cnn3-c2ccccc2)nn1)Nc1cccc2ccccc12

>  <growth (%)>
108

$$$$
>  <compound>
Cc1nc(Nc2ccccn2)sc1C(=O)/C=C/c1ccc(Cl)cc1

>  <growth (%)>
61.5

$$$$
>  <compound>
O=C(CCc1nnc2sc(-c3ccc(Cl)cc3Cl)nn12)c1nc2ncccc2[nH]1

>  <growth (%)>
-31.6

$$$$
>  <compound>
COc1cccc(C2=NN3C(C2)c2ccccc2OC3c2ccc(/C=C3\SC(=O)NC3=O)cc2)c1 (stereo not given)

>  <growth (%)>
102

$$$$
>  <compound>
N#CC(C#N)=Cc1c(-c2ccccc2)[nH]c2ccccc12

>  <growth (%)>
67.6

$$$$

Incoming: Please look up its growth: CCCCN1CCN(c2ccc3nc(-c4ccc5nc(-c6ccc(C(F)(F)F)cc6)[nH]c5c4)[nH]c3c2)CC1
Outgoing: -71.3

Incoming: Please look up its growth: COc1cc2nc(NC3CCC3)nc(NC3CCN(C(C)C)CC3)c2cc1OC
Outgoing: 46.8

* * *

# Tested on: HOP-92 NSCLC
# testDetails: NCI-60 one-dose screen, 48 h (100 = growth as untreated, 0 = no growth, -100 = all killed)
# testParameters: 10 µM unless noted
# Protocol: Growth inhibition of the HOP-92 human Non-Small Cell Lung tumor cell line is measured as a screen for anti-cancer activity. Cells are grown in 96 well plates and exposed to the test compound for 48 hours. Compounds are tested at a single concentration, which is 10^-5 M for most compounds. The reported endpoint is percent growth (GI% or GIPRCNT), where numbers from 0 - 100% represent growth inhibition, and numbers from -100% - 0 represent cell death. […]
This is part of a sample that, as a whole, favours compounds with a hit. Of some 83,000 tested, about 20% had one in any assay.
readoutType: growth (%)
Value expressed in %; do not type the unit.

>  <inputSmiles>
COc1ccc(C(=O)Nc2ccc3nc(N4CCCCC4)cc(C)c3c2)cc1OC

>  <growth, %>
40.8

$$$$

Incoming: Please look up its growth: CCOc1cccc(/C=N/NC(=O)C(=O)Nc2cccc(C(F)(F)F)c2)c1O
Outgoing: 43.8

Incoming: Please look up its growth: O=C(CCc1nnc2sc(Cc3ccccc3Cl)nn12)c1nc2ncccc2[nH]1
Outgoing: 78.4

Incoming: Please look up its growth: CCN(CC)CCNC(=O)C(Cl)=C1C(Cl)=C(Cl)C(Cl)=C1Cl
Outgoing: 53.8

Incoming: Please look up its growth: O=C(COc1cc(O)c2c(=O)cc(-c3ccccc3)oc2c1)Nc1ccccc1
Outgoing: 89.9

* * *

# Test system: K-562 leukemia
# testDetails: NCI-60 one-dose screen, 48 h
# testParameters: 10 µM unless noted
The panel holds about 83,000 compounds, 20% with a hit somewhere; the sample as a whole holds those more often. Calls of active or inactive are those of the source. How the source made its calls: active means growth percent below 10; inactive means the rest.
Result category, one only: active, inactive

Record excerpt, results attached:
>  <molecule>
O=C(/C=C/c1ccccc1)c1ccc(Nc2nc(NCCO)nc(Nc3ccc(Cl)cc3)n2)cc1

>  <cat>
inactive

$$$$
>  <molecule>
CCOC(=O)c1sc(-c2ccc(OS(=O)(=O)c3ccc(Br)s3)c(C=O)c2)nc1C

>  <cat>
active

$$$$
>  <molecule>
CCOC(=O)c1c2c(c(C)n1Cc1ccc(OC)cc1)-c1oncc1CC2

>  <cat>
inactive

$$$$
>  <molecule>
COc1ccc(C2Nc3nc(OC)n(C)c(=O)c3N=C3c4ccccc4C(=O)C32)cc1 (stereo unspecified)

>  <cat>
inactive

$$$$
>  <molecule>
NC(CCc1nc2ccccc2c(=O)[nH]1)C(=O)O (stereo unspecified)

>  <cat>
inactive

$$$$

Incoming: Look up the recorded call for Cc1cc2c(c(C)c1Cl)C(=O)/C(=C/c1ccco1)O2 in this test.
Outgoing: inactive

Incoming: Look up the recorded call for Cc1ccc(OCCCCCCNCCO)c(C)c1 in this test.
Outgoing: active

Incoming: Look up the recorded call for O=C(CN1C=NC2C(N3CCOCC3)=NC=NC21)c1ccc(Br)cc1 (stereo unspecified) in this test.
Outgoing: inactive

Incoming: Look up the recorded call for Cc1ccc(C2CC(c3ccc(Nc4nc(NCCO)nc(Nc5ccc(Cl)cc5)n4)cc3)=NN2c2cc(Cl)cc(Cl)c2)cc1 (stereo unspecified) in this test.
Outgoing: inactive

Incoming: Look up the recorded call for O=c1c2cc(F)ccc2sc2c(NCCCNCCO)nc3ccc(Cl)cc3c12 in this test.
Outgoing: active

Incoming: Look up the recorded call for COc1ccc(CCN2C(=O)/C(=C/c3ccc(C4Oc5ccccc5C5CC(c6cccc(OC)c6)=NN54)cc3)SC2=S)cc1 (stereo unspecified) in this test.
Outgoing: inactive

Incoming: Look up the recorded call for COc1ccc(Nc2cc(C)nc(NCc3ccccc3)n2)cc1 in this test.
Outgoing: active

Incoming: Look up the recorded call for NCCNc1nc2ccccc2c2c(=O)c3cc(F)cc(Cl)c3sc12 in this test.
Outgoing: active

Incoming: Look up the recorded call for CC/C(=C(\CC)c1ccc(OCC[N+](C)(C)C)cc1)c1ccc(OC)cc1 in this test.
Outgoing: inactive

From: PubChem BioAssay (NCI)
